target: Protein cereblon/Tyrosine-protein kinase JAK2 (Homo sapiens, UniProt O60674+Q96SW2); test: Protac activity at E3 ubiquitin ligase/JAK2 in human MHH-CALL-4 cells assessed as E3 ubiquitin ligase mediated JAK2 degradation incubated for 32 hrs by immunoblotting analysis
Sequence (O60674 whole entry): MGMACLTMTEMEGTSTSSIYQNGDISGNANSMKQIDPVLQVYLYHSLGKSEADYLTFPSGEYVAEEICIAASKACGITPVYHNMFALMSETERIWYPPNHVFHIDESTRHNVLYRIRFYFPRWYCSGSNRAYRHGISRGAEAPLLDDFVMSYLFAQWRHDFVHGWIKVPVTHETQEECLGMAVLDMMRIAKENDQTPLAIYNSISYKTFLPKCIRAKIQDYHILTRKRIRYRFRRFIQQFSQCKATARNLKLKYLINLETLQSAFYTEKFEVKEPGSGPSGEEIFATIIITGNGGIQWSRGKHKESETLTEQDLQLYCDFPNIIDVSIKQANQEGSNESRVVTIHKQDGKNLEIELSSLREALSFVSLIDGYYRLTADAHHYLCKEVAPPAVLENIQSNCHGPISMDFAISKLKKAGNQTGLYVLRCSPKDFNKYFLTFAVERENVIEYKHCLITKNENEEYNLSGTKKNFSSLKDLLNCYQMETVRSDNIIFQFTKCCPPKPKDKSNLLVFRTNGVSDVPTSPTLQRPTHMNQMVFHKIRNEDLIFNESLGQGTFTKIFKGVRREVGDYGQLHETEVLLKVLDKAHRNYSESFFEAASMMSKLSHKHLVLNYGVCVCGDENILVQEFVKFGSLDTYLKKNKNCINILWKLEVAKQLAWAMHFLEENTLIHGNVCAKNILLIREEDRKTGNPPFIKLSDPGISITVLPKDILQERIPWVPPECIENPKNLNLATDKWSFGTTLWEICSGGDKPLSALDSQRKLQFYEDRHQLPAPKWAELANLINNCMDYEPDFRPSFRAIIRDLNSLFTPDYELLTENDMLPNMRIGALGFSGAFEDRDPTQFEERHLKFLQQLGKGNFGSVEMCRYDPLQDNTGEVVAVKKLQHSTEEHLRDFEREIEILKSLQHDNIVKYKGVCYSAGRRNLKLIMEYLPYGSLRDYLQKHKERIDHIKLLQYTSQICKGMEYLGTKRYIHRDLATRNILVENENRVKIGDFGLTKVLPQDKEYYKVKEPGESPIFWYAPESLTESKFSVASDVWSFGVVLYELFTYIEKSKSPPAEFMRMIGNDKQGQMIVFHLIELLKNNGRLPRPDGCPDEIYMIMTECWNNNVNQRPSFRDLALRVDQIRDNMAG
Sequence (Q96SW2 whole entry): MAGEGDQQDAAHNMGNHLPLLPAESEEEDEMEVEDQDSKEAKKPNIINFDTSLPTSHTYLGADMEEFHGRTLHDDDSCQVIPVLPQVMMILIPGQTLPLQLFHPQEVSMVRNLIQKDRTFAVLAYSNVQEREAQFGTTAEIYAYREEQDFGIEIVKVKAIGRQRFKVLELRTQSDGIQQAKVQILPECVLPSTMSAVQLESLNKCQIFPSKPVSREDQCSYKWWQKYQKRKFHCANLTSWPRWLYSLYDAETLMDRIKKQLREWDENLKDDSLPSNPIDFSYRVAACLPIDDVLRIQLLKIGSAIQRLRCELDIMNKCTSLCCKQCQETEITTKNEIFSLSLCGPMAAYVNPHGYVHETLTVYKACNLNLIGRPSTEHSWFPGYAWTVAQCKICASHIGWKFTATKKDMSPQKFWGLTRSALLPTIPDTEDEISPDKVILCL
Readout Label: pEC50
On this scale, pEC50 is minus log10 of a concentration expressed in M (mol/L).

Find the measured pEC50 of CCCn1cc(-c2nc(Nc3ccc(C(=O)NCCCCCc4cccc5c4CN(C4CCC(=O)NC4=O)C5=O)cc3)nc3[nH]ccc23)cn1 (stereo unspecified) and report it. 9.30
